System: NCI/ADR-RES ovarian
Assay: NCI-60 one-dose screen, 48 h (100 = growth as untreated, 0 = no growth, -100 = all killed)
Conditions: 10 µM unless noted
Description: Growth inhibition of the NCI/ADR-RES human […] tumor cell line is measured as a screen for anti-cancer activity. Cells are grown in 96 well plates and exposed to the test compound for 48 hours. Compounds are tested at a single concentration, which is 10^-5 M for most compounds. The reported endpoint is percent growth (GI% or GIPRCNT), where numbers from 0 - 100% represent growth inhibition, and numbers from -100% - 0 represent cell death. For example, a value of 40 represents 60% growth inhibition. […]
The panel holds about 83,000 compounds, 20% with a hit somewhere; the sample as a whole holds those more often.
Reported Property: growth (%)
Please give a number only; it is taken to be in %.

Exercise: Missing value: growth, NCI/ADR-RES ovarian, entry "Cn1cc(-c2nn3c(=O)cc(-c4ccccc4)nc3s2)c2cc(F)ccc21" . Fill in?
Solution: 42.2

Exercise: Missing value: growth, NCI/ADR-RES ovarian, entry "O=C1/C(=C/c2ccc([N+](=O)[O-])cc2)SC(=Nc2ccccc2)N1Nc1ccccc1" . Fill in?
Solution: 45.8

Exercise: Missing value: growth, NCI/ADR-RES ovarian, entry "CCOC(=O)c1nn(-c2ccc(C)cc2)c(=O)c2c(N)c(C#N)c(-c3ccc(OC)cc3)cc12" . Fill in?
Solution: 106

Exercise: Missing value: growth, NCI/ADR-RES ovarian, entry "CN1CCN(Cc2ccc(NC(=O)c3cncc(C#Cc4cnc5ccc(NC6CCOCC6)nn45)c3)cc2C(F)(F)F)CC1" . Fill in?
Solution: 7.41

Exercise: Missing value: growth, NCI/ADR-RES ovarian, entry "IP(CCCCCCCCCCSc1n(Cc2ccc3ccccc3c2)c(-c2ccccc2)c(-c2ccccc2)[n+]1Cc1ccc2ccccc2c1)(c1ccccc1)(c1ccccc1)c1ccccc1" . Fill in?
Solution: 29.6

Exercise: Missing value: growth, NCI/ADR-RES ovarian, entry Cn1c(SC(C(=O)Nc2ccc(F)cc2)c2ccccc2)nc2ccccc2c1=O (centres undefined) . Fill in?
Solution: 109

Exercise: Missing value: growth, NCI/ADR-RES ovarian, entry "CSc1ccc(/C(=N/N=C(N)N)c2ccccc2)cc1" . Fill in?
Solution: 40.3

Exercise: Missing value: growth, NCI/ADR-RES ovarian, entry "Cc1csc(Nc2cccc(Nc3nc(C)cs3)c2)n1" . Fill in?
Solution: 66.9

Exercise: Missing value: growth, NCI/ADR-RES ovarian, entry "N#Cc1ccc(S(=O)(=O)Nc2ccc(-c3cnc(N)[nH]3)cc2)cc1" . Fill in?
Solution: 102

* * *

System: RXF 393 renal
Assay: NCI-60 one-dose screen, 48 h (100 = growth as untreated, 0 = no growth, -100 = all killed)
Conditions: 10 µM unless noted
This is part of a sample that, as a whole, favours compounds with a hit. Of some 83,000 tested, about 20% had one in any assay.
Reported Property: growth (%)
Please give a number only; it is taken to be in %.

Exercise: GET /values?readout=growth&item= "CC[C@H](C)[C@H]1NC(=O)[C@@H]([C@H](O)C(C)C)NC(=O)[C@@H](C)N(C)C(=O)[C@H](C)N(C)C(=O)[C@H](CC(C)C)NC(=O)[C@H](CC(C)C)N(C)C(=O)[C@H](C)N(C)C1=O"
Solution: -17.8

Exercise: GET /values?readout=growth&item= "COc1cc2cc(Oc3ccc(NC(=O)Nc4cc(C(F)(F)F)cc(C(F)(F)F)c4)cc3)c(C)nc2cc1OCCN(C)C"
Solution: 112

Exercise: GET /values?readout=growth&item= "COc1ccc2c(C3=C(c4c[nH]c5ccccc45)C(=O)N(O)C3=O)coc2c1"
Solution: 105

Exercise: GET /values?readout=growth&item= "C#C[C@]1(O)CC[C@H]2[C@@H]3CC=C4c5sc(Nc6ccc(OC)nc6)nc5CC[C@]4(C)[C@H]3CC[C@@]21C"
Solution: -15.7

Exercise: GET /values?readout=growth&item= "Fc1ccc(-c2cc3nc(C(Cl)Cl)nc(-c4cccs4)n3n2)cc1"
Solution: -44.1

Exercise: GET /values?readout=growth&item= "C/C(=C(/c1ccc(O)cc1)c1ccc(OCCN2CCCC2)cc1)c1ccc(Cl)cc1"
Solution: 3.89

Exercise: GET /values?readout=growth&item= "COc1cnc2c(c1)C(=O)c1c-2n(CCCn2ccnc2)c(=O)c2cc(OC)c(OC)cc12"
Solution: -10.5

Exercise: GET /values?readout=growth&item= "COc1cc(O)c2c(c1)[C@H]1O[C@@H]1C[C@H](O)[C@H](O)C(=O)/C=C\C[C@H](C)OC2=O"
Solution: 8.74

* * *

Test system: K-562 leukemia
Assay: NCI-60 one-dose screen, 48 h
Conditions: 10 µM unless noted
Compounds without any hit were thinned out: in the full panel of roughly 83,000, 20% have a hit. Activity calls are given as the source filed them. The calls were made as follows: active = growth percent below 10; inactive = the rest.
# output must be one of active, inactive

Exercise: Could you please tell me the result logged for "O=C(NCCCCCCNC(=O)c1c2c(nc3ccccc13)-c1cccnc1SC2)c1c2c(nc3ccccc13)-c1cccnc1SC2" in this assay?
Solution: inactive

Exercise: Could you please tell me the result logged for "Oc1ccccc1-c1nnc(SCc2ccc(O)c3ncccc23)n1-c1ccccc1" in this assay?
Solution: inactive

Exercise: Could you please tell me the result logged for "O=C(CSc1ccc(-c2nc3ccccc3[nH]2)cn1)N1CCN(c2ccccc2F)CC1" in this assay?
Solution: inactive

Exercise: Could you please tell me the result logged for "C=C(C)[C@@H]1CC[C@]2(COS(C)(=O)=O)CC[C@]3(C)[C@H](CC[C@@H]4[C@@]5(C)CCCNC(C)(C)[C@@H]5CC[C@]43C)[C@@H]12" in this assay?
Solution: active

Exercise: Could you please tell me the result logged for "O=C1Nc2cc(OC(F)(F)F)ccc2Oc2ccc(-c3ccnc(N4CC[C@H](O)C4)c3)cc21" in this assay?
Solution: active

Exercise: Could you please tell me the result logged for CCCC(=O)NC(c1cccnc1)c1ccc2c(C)ccnc2c1O (centres undefined) in this assay?
Solution: inactive

Exercise: Could you please tell me the result logged for "NC(=O)c1c(NC(=O)c2cccc(OC(F)(F)F)c2)sc2c1CCC(=O)C2" in this assay?
Solution: inactive

Exercise: Could you please tell me the result logged for "CCCCOc1ccc(S(=O)(=O)N2CCN(c3nccc(N4CCOCC4)n3)CC2)cc1" in this assay?
Solution: inactive

Exercise: Could you please tell me the result logged for "COc1cc(NC2=C(Cl)C(=O)c3nc(C)ccc3C2=O)cc(OC)c1" in this assay?
Solution: active

* * *

System: EKVX NSCLC
Assay: NCI-60 one-dose screen, 48 h (100 = growth as untreated, 0 = no growth, -100 = all killed)
Conditions: 10 µM unless noted
Protocol: Growth inhibition of the EKVX human Non-Small Cell Lung tumor cell line is measured as a screen for anti-cancer activity. Cells are grown in 96 well plates and exposed to the test compound for 48 hours. Compounds are tested at a single concentration, which is 10^-5 M for most compounds. The reported endpoint is percent growth (GI% or GIPRCNT), where numbers from 0 - 100% represent growth inhibition, and numbers from -100% - 0 represent cell death. […]
The panel holds about 83,000 compounds, 20% with a hit somewhere; the sample as a whole holds those more often.
Reported Property: growth (%)
Please give a number only; it is taken to be in %.

Exercise: Missing value: growth, EKVX NSCLC, entry "NC(=O)C(=Cc1ccc(Cl)cc1)C(N)=O" . Fill in?
Solution: 59.8

Exercise: Missing value: growth, EKVX NSCLC, entry CCOC(=O)/C(F)=C/C1CC1C1CCCCC1 (stereo not given) . Fill in?
Solution: 110

Exercise: Missing value: growth, EKVX NSCLC, entry "COc1cc2c3c(n(CCCNC4CCCC4)c(=O)c2cc1OC)-c1cc2c(cc1C3=O)OCO2" . Fill in?
Solution: -67.4

Exercise: Missing value: growth, EKVX NSCLC, entry "Cc1ccc(Cc2cnc(NC(=O)/C(C#N)=C/c3ccc(-c4ccc(Cl)cc4)o3)s2)cc1" . Fill in?
Solution: 92.7

Exercise: Missing value: growth, EKVX NSCLC, entry CCN1C(=O)N(CC)C2C1NN=C1SC(c3ccccc3)=CC(=O)N12 (stereo not given) . Fill in?
Solution: 45.6

Exercise: Missing value: growth, EKVX NSCLC, entry "O=C(NNc1nc2cc(F)c(F)cc2n2cccc12)c1ncccn1" . Fill in?
Solution: 17.3

Exercise: Missing value: growth, EKVX NSCLC, entry "COC(=O)c1nc(-c2ccc(C)cc2)oc1S(=O)(=O)N1CCN(c2oc(-c3ccccc3)nc2C#N)CC1" . Fill in?
Solution: 106

Exercise: Missing value: growth, EKVX NSCLC, entry "ClC(Cl)c1nc(-c2cccs2)n2nc(-c3ccccc3)cc2n1" . Fill in?
Solution: -26.8

Exercise: Missing value: growth, EKVX NSCLC, entry "O=S(=O)(NCCCNc1nccc(-n2cnc3ccccc32)n1)c1ccc(F)cc1" . Fill in?
Solution: 61.2

Exercise: Missing value: growth, EKVX NSCLC, entry "NNC(=O)c1sc2nc(-c3cnccn3)cc(-c3cccs3)c2c1N" . Fill in?
Solution: 86.8
